- system: DA-uptake complex (Rattus norvegicus, UniProt P23977)
- Construct: in a striatal membrane preparation
- Sequence (P23977 whole entry, one chain of several): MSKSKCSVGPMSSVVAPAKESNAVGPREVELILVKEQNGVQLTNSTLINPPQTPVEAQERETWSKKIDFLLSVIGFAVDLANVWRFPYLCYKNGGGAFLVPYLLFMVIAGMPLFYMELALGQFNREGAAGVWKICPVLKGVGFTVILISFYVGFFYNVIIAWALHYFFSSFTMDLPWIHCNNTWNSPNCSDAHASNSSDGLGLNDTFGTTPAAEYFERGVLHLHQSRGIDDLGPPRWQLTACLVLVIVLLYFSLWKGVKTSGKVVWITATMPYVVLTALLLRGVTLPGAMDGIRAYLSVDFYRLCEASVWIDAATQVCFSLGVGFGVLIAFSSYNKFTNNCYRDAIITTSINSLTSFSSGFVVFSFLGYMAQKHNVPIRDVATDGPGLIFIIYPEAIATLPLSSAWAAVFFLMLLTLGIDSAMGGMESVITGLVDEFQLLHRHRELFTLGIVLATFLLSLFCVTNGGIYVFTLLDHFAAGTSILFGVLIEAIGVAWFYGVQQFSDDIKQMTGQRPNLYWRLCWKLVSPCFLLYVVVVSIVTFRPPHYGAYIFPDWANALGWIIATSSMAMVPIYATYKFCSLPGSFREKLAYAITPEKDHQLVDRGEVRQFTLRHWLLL
- test.method.notes: Test 1: inhibition of 3H-GBR 12935 binding in a striatal membrane preparation
readout.label: pIC50
pIC50 here is simply -log10 of the concentration when that concentration is written in mol/L.

query: Find the measured pIC50 of N#CCCCCN1CCN(CCOC(c2ccc(F)cc2)c2ccc(F)cc2)CC1 and report it.
result: 7.74
